study_target: PI3K-γ (Homo sapiens)
Sequence (P48736 whole entry, species assumed): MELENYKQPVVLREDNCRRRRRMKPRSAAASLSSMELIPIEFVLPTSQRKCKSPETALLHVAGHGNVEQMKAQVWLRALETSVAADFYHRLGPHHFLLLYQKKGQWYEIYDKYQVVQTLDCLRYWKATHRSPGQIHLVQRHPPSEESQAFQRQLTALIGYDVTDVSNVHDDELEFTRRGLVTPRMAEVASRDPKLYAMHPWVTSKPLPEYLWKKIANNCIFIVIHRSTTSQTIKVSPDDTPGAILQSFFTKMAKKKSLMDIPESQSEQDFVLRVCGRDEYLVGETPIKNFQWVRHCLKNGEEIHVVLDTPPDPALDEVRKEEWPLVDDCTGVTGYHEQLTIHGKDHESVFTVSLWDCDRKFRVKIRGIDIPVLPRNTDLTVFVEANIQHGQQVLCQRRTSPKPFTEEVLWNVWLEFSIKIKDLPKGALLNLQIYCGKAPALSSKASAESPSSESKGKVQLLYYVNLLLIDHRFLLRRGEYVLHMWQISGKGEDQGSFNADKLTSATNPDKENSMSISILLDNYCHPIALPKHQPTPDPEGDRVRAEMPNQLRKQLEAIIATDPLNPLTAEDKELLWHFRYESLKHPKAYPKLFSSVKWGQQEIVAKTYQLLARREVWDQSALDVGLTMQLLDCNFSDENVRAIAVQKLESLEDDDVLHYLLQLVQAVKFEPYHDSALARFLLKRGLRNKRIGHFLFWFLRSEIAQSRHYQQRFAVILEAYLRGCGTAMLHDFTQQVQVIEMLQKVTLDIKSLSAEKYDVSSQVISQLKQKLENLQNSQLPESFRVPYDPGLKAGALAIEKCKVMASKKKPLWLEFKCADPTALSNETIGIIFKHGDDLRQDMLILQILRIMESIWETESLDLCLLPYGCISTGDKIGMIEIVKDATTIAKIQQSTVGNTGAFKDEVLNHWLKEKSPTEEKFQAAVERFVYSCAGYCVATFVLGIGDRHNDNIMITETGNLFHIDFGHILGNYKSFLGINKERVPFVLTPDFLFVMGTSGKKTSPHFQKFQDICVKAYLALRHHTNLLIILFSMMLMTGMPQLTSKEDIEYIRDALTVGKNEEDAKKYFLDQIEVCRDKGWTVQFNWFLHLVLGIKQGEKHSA
measured_metric: Ki

{"columns": ["compound_string", "study_target", "value_measured"],
 "data": [
  ["CCOCCNC(=O)Nc1nc(C)c(C#Cc2ccncc2)s1", "PI3K-γ (Homo sapiens)", "< 50 nM"]
]}
